# assayed-target: rat µ opioid receptor (rat, UniProt P33535 1-398)
# Sequence (P33535 whole entry): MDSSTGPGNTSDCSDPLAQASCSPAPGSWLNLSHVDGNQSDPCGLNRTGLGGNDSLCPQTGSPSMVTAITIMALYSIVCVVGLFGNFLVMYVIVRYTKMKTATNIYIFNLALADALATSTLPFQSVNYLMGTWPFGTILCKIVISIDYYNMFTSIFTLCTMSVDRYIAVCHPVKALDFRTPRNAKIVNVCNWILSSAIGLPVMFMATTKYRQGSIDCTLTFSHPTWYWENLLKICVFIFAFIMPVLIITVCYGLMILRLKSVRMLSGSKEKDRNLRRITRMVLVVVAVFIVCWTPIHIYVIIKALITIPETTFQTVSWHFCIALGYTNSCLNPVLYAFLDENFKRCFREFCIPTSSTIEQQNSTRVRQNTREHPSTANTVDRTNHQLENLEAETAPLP
# experiment: cell-based or functional assay
Bridge positions count the residues as written; N and C are the ends. Square brackets hold non-standard residues; d marks the D form. Ends that are not written are not given here. * marks the point of attachment. NHBn(CF3)2 = C-terminal amide NH-Bn(CF3)2, a benzyl group carrying two CF3; Glc = O-glucosyl on Ser side chain (Ser(OGlu)/Ser(OGlc)); NH(3,5-(CF3)2-benzyl) = FC(F)(F)c1cc(CN*)cc(C(F)(F)F)c1; OBzl(3,5-(CF3)2) = FC(F)(F)c1cc(CO*)cc(C(F)(F)F)c1; NH‑Bn(CF3)2 = C-terminal Bn(CF3)2 amide; Nle = CCCC[C@H](N)C(=O)O
Documented GTP binding rMOR EC50 across a set of binders
API: value field is a number in nM; no unit string.

Q: // returns reported GTP binding rMOR EC50 for input Y[dA]GFSPLW-{NH(3,5-(CF3)2-benzyl)} (not fully specified (residue 5); printed as TyrDAlaGlyPheSer(OGlu)ProLeuTrpNHBn(CF3)2) [TyrDAlaGlyPheSer(OGlu)ProLeuTrpNHBn(CF3)2 (TY042)]
Ans: 176

Q: Can you handle Y[dA]GFM[dP]LW-{OBzl(3,5-(CF3)2)} [TyrDAlaGlyPheMetDProLeuTrpOBn(CF3)2 (TY024)] next?
Ans: 123

Q: Input Y[dC]GFCPLW-{NH(3,5-(CF3)2-benzyl)} (disulfide 2-5, also called [D-Cys2, Cys5]) [Tyr[DCysGlyPheCys]ProLeuTrpNHBn(CF3)2 (TY039)]
Ans: 118

Q: # iterate: Y[dA]GFFPLW-{OBzl(3,5-(CF3)2)} [TyrDAlaGlyPhePheProLeuTrpOBn(CF3)2 (TY003)]
Ans: 58.7

Q: Consider next the binder Y[dA]GF[Nle]PS(Glc)W-{NH‑Bn(CF3)2} [TyrDAlaGlyPheNleProSer(OGlu)TrpNHBn(CF3)2 (TY041)] in the same way.
Ans: 18

Q: Lookup Y[dA]GFFPLW-{NHBn(CF3)2} [TyrDAlaGlyPhePheProLeuTrpNHBn(CF3)2 (TY015)]
Ans: 176
